# pIC50 per record follows
Target: Bcat-Halo (UniProt P35222)
Sequence (P35222 whole entry): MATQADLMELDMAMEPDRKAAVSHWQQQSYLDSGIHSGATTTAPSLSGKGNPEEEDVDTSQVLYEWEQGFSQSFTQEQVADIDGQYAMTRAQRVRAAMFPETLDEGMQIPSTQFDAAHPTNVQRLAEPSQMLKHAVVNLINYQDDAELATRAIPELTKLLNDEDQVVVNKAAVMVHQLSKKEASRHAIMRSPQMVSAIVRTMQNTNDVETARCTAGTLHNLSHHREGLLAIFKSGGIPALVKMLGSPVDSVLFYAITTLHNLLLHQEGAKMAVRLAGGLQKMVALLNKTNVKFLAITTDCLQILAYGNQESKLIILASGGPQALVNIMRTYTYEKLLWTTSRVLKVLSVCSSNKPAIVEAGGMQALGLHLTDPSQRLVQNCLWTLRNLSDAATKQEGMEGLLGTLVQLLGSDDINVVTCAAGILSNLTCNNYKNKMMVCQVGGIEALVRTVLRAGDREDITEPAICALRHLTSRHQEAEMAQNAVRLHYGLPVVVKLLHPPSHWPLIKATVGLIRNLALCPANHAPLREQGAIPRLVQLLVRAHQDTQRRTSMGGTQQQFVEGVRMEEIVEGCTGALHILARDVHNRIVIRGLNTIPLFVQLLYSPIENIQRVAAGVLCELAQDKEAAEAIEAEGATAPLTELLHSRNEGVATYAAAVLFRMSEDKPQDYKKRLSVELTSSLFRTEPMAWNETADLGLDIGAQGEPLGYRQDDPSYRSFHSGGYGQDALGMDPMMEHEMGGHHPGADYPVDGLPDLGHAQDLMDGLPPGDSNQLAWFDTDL
Assay: NanoBRET Abs IC50, HEK293 cells transfected with Bcat-Halo and TCF4-Luc (competitor: TCF4-Luc); cellular assay
pIC50: −log10 of the molar value. Starred links: 1 amine or outer side, 2 acyl side, 3 side chain; linkers in the order of their positions; H or OH if unused. Positions of bridges follow the written chain, without caps; N, C: chain ends. Non-standard residues stand in square brackets, D forms with d. Primed or numbered codes have the meaning given here. PyrS2″ = (S)-3-amino-1-((pent-4-en-1-yloxy)carbonyl)pyrrolidine-3-carboxylic acid (stapling residue), C=CCCCOC(=O)N1CC[C@@](N[*:1])(C(=O)[*:2])C1; B5(5) = 2,2-bis(4-pentenyl)glycine, 2-amino-2-(pent-4-en-1-yl)hept-6-enoic acid (stitching residue), C=CCCCC(CCCC=C)(N[*:1])C(=O)[*:2]; PyrS2 = (S)-3-amino-1-((pent-4-en-1-yloxy)carbonyl)pyrrolidine-3-carboxylic acid, C=CCCCOC(=O)N1CC[C@@](N[*:1])(C(=O)[*:2])C1; Phe(2-Cl) = N[C@@H](Cc1ccccc1Cl)C(=O)O; Bta = N[C@@H](Cc1csc2ccccc12)C(=O)O; αAllylPro = C=CC[C@@]1(C(=O)O)CCCN1; tBuAla = CC(C)(C)C[C@H](N)C(=O)O; Cha = N[C@@H](CC1CCCCC1)C(=O)O
reported_property: pIC50

binder="Ac-[αAllylPro]E[tBuAla][B5(5)]DDAAFN[PyrS2″][Phe(2-Cl)][Bta][dT]-NH2 (staple 1-4, 4-11) [I-1029]" reported_property=pIC50 limit_operator=< value_reported=4.70
binder="Ac-[αAllylPro]D[Cha][B5(5)]DDAAFS[PyrS2][Phe(2-Cl)][Bta]S-NH2 (staple 1-4, 4-11) [I-1050]" reported_property=pIC50 limit_operator== value_reported=4.61
binder="Ac-[αAllylPro]D[Cha][B5(5)]DDAAFS[PyrS2″][Phe(2-Cl)][Bta]Q-NH2 (staple 1-4, 4-11) [I-1044]" reported_property=pIC50 limit_operator== value_reported=4.75
binder="Ac-[αAllylPro]D[Cha][B5(5)]DDAAFN[PyrS2″][Phe(2-Cl)][Bta]S-NH2 (staple 1-4, 4-11) [I-1046]" reported_property=pIC50 limit_operator== value_reported=4.69
binder="Ac-[αAllylPro]D[tBuAla][B5(5)]DDAAFL[PyrS2″][Phe(2-Cl)][Bta][dT]-NH2 (staple 1-4, 4-11) [I-1035]" reported_property=pIC50 limit_operator== value_reported=4.99
binder="Ac-[αAllylPro]D[tBuAla][B5(5)]EDAAFN[PyrS2″][Phe(2-Cl)][Bta][dT]-NH2 (staple 1-4, 4-11) [I-1030]" reported_property=pIC50 limit_operator=< value_reported=4.70
